Test: amyloid nucleation score (Sup35N fusion, yeast selection) (log enrichment); library NNK3; higher = more nucleation; inactive = no reads after selection;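 note: zero at mode of non-aggregating sequences after 7 days selection at 30°C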
Readout: amyloid nucleation score

Use these answered entries as a reference point.
* MKVIRTYRGYGCQDWIELLF | inactive
* SQVGMSPYRSCSINKWCPGI | inactive
* PVDKRTSTAVDRFARAMNCQ | inactive
* SRSFKRNLVSMVNLGVRDEM | inactive

Identify measured amyloid nucleation score corresponding to `CMIELRSR`
inactive

---

Experiment: amyloid nucleation score (Sup35N fusion, yeast selection) (log enrichment); library NNK3; higher = more nucleation; inactive = no reads after selection
Readout: amyloid nucleation score

Some solved entries appear below for comparison.
- LRWRHGCIR: inactive
- LGNSAKVVLRWVEGVGLGVA: inactive
- VNSDEPMHWRSSGNYRARIV: inactive
- AEYLMEQAGTMC: inactive
- VVGFMYYARFLPSDFVSINA: inactive

Entry `QDFKCRRGNY` needs its amyloid nucleation score filled in; supply it.
inactive

Entry `IGRTLSHSATRLVCTDPFRR` needs its amyloid nucleation score filled in; supply it.
inactive

// fetch amyloid nucleation score given entry `RSGLVRSRCSRI`
inactive

Please give measured amyloid nucleation score of the following entry: `NLLSAVY`
0.787
